The following compounds have recorded Kd on NRP1-b1 (Homo sapiens).
Sequence (O14786 273-427): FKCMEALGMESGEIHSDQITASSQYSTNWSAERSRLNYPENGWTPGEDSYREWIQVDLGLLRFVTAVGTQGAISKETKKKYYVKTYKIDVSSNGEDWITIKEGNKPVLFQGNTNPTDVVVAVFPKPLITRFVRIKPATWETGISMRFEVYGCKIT
property: Kd (nM)

N=C(N)NCCC[C@H](NC(=O)c1sccc1NS(=O)(=O)c1cc(-c2cccc(CNCc3cn[nH]c3)c2)cc2c1OCC2)C(=O)O [10d]	1430

I = N=C(N)NCCC[C@H](NC(=O)c1sccc1NS(=O)(=O)c1cc(-c2cccc(CNCc3ncc[nH]3)c2)cc2c1OCC2)C(=O)O [10b]
II = N=C(N)NCCC[C@H](NC(=O)c1sccc1NS(=O)(=O)c1cc(-c2cccc(CNCc3cc[nH]n3)c2)cc2c1OCC2)C(=O)O [10c]
III = N=C(N)NCCC[C@H](NC(=O)c1sccc1NS(=O)(=O)c1cc(-c2cccc(CNCc3ccccn3)c2)cc2c1OCC2)C(=O)O [10e]
Thanks in advance: please rank these 3 entries by Kd, highest to lowest. Kindly provide the labels arranged according to the requested ordering. II, I, III

###

assay: IV pharmacokinetics in mice; assay type: in vivo; conditions: female, BABL/c (so in the source); BALB/c), mouse, plasma, IV bolus 2 mg/kg
property: clearance (mL/min/kg)
Report as a plain number; the unit mL/min/kg is understood.

Provide one value: measured clearance of N=C(N)NCCC[C@H](NC(=O)c1sccc1NS(=O)(=O)c1cc(-c2cccc(CNCc3cn[nH]c3)c2)cc2c1OCC2)C(=O)O [10d] 18.4

###

test: IV pharmacokinetics in mice; assay type: in vivo; settings: female, BABL/c, mouse, plasma, 2 mg/kg, IV
property: half-life (h)
Give just the numeric value; h need not be written.

Please give the documented half-life of N=C(N)NCCC[C@H](NC(=O)c1sccc1NS(=O)(=O)c1cc(-c2ccc(CN)cc2)cc2c1OCC2)C(=O)O 4.29

###

test: IV pharmacokinetics in mice; assay type: in vivo; conditions: female, BABL/c (so in the source); BALB/c), mouse, plasma, 2 mg/kg, IV
property: half-life (h)
Provide the reading as a plain figure in h.

Name the recorded half-life of the molecule listed here: N=C(N)NCCC[C@H](NC(=O)c1sccc1NS(=O)(=O)c1cc(-c2cccc(CNCc3cn[nH]c3)c2)cc2c1OCC2)C(=O)O [10d] 1.2

###

assay: IV pharmacokinetics in mice; assay type: in vivo; settings: female, BABL/c (so in the source); BALB/c), mouse, plasma, IV bolus 2 mg/kg
property: AUC(0-inf) (ng·h/mL)
Only the number, expressed in ng·h/mL, is required.

Give recorded AUC(0-inf). N=C(N)NCCC[C@H](NC(=O)c1sccc1NS(=O)(=O)c1cc(-c2cccc(CNCc3cn[nH]c3)c2)cc2c1OCC2)C(=O)O [10d] 3140

###

test: IV pharmacokinetics in mice; assay type: in vivo; conditions: female, BABL/c, mouse, plasma, IV bolus 2 mg/kg
property: clearance (mL/min/kg)
Dear colleague, please return just the value in mL/min/kg, with no unit written.

Let me know recorded clearance for N=C(N)NCCC[C@H](NC(=O)c1sccc1NS(=O)(=O)c1cc(-c2ccc(CN)cc2)cc2c1OCC2)C(=O)O [compound 1] , thanks. 14

Data provenance: paper PMC5957473
